Source: patent US20240132624A1

- tgt: T1, cyno FcRn/b2M (cyno, UniProt Q8SPV9 24-297; Q8SPW0 21-119, biotinylated)
- T1 construct: bought recombinant biotinylated protein (Immunitrack ITF05 or ACRO FCM-C82W5); also called cFcRn; cFcRn/cb2M
- assay.details: SPR pH 7.4;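 also: surface plasmon resonance kinetics, periplasmic extracts diluted 1:10 flowed over immobilized target at 25 °C, 120 s association then 600–3600 s dissociation, buffer with 150 mM NaCl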
readout.name: koff (s⁻¹)

Answered cases to consult:
I'd like to know its koff. The binder in question is T0263018B11 T96I (VHH, name in Kabat numbering, FLAG3-His6 tagged) VHH: EVQLVESGGGVVQPGGSLRLSCAASGFTFSSYAMYWVRQAPGKGLEWVSAISSGGGSTDYADSVKGRFTISRDNSKNTLYLQMNSLRPEDTALYYCAADILYTSLTWYSYWGQGTLVTVSS
0.024

I'd like to know its koff. The binder in question is T0263018B11 T96V (VHH, name in Kabat numbering, FLAG3-His6 tagged) VHH: EVQLVESGGGVVQPGGSLRLSCAASGFTFSSYAMYWVRQAPGKGLEWVSAISSGGGSTDYADSVKGRFTISRDNSKNTLYLQMNSLRPEDTALYYCAADVLYTSLTWYSYWGQGTLVTVSS
0.014

P: T0263018B11 T57G (VHH, name in Kabat numbering, FLAG3-His6 tagged) VHH: EVQLVESGGGVVQPGGSLRLSCAASGFTFSSYAMYWVRQAPGKGLEWVSAISSGGGSGDYADSVKGRFTISRDNSKNTLYLQMNSLRPEDTALYYCAADTLYTSLTWYSYWGQGTLVTVSS
Q: T0263018B11 T96Y (VHH, name in Kabat numbering, FLAG3-His6 tagged) VHH: EVQLVESGGGVVQPGGSLRLSCAASGFTFSSYAMYWVRQAPGKGLEWVSAISSGGGSTDYADSVKGRFTISRDNSKNTLYLQMNSLRPEDTALYYCAADYLYTSLTWYSYWGQGTLVTVSS
Form: Entry with minimum koff (choose one): P / Q Respond using the label that marks the chosen record.
Q
(Q: 0.017 s⁻¹, P: 0.04 s⁻¹)
